System: K4 kissing-loop RNA reporter;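 further: bound reporter read as fluorescence of individual clusters on recovered sequencing chips by microscopy, with normalized cluster intensities fitted with a binding model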
method: apparent KD of K4 kissing-loop reporter; higher = weaker reporter binding
assayContext: Eterna round: R107; input ligand: theophylline 20 uM
// reported apparent KD of K4 kissing-loop reporter per item
Number in nM, nothing else.

Some solved cases for reference:
| monomerSequence | apparent KD of K4 kissing-loop reporter [nM] |
| --- | --- |
| CGAGUGAUGUUCGUUUUUUACUCUGUUUGACAGGAUAUGCGGAAACGCAGAAGGGUCACCUUUGAGUUAAACGGAGUUAUUUUUU [Ex FMN A 20] | 306 |
| UAAGCUCUGACGGCCGCCACUGCACGUGAUCCAGUAGUGGCUAACAUGAGUGAUGUUCAUGUAAGCAGGACCGGGUCAGAGCUAA [KL-XTryp-B13 #analogue] | 81.7 |
| AACUCUCAGGCACGCGAGUGAUGUUCGCGCCGAGGACCGGUACGGCCGCCACUCGGGCCUGAGAGAGGUUAUCAAAGAUAGCCAA [whbob_SS_tryp_A] | 204 |
| AGAAAGAAGGCGGCCGCCACUCUGAUGGGCGAAAGCCCAUUUUUUUAGCAGUGAUGUUGCUUGUUGAGGACCGGGCCAAAGAAAU [2nd] | 193 |

Proceeding to the next sequence to report its apparent KD of K4 kissing-loop reporter.
Report apparent KD of K4 kissing-loop reporter, nothing else, for this sequence: AUUCUAUUGUGAAGGAGCGCGUAUAGUAGUGAUGUUACUAUAAUGAUAGAUACUUAAUUCUCGCAGGUAGGUCGCACAAUAUAUA [JR_Nu_ExcArginiB_Sub024]
85

====

Test system: MS2 coat protein
method: apparent KD of MS2 coat protein; higher = weaker reporter binding
assayContext: Eterna round: R101; input ligand: FMN 200 uM
Response key: fulfilled means apparent KD of MS2 coat protein >= 50 nM; not fulfilled means apparent KD of MS2 coat protein < 50 nM.

| monomerSequence | discreteLabel |
| --- | --- |
| UUAUUAUAUGUAGGAUAUGCAUAUUAUUACUGUGCAGAAGGACAUGAGGAUCACCCAUGUAUAUUAUUAUUAUAUAUUAUAUAU (puzzle (switch architecture): Exclusion NG 1) | not fulfilled |

Could you verify whether the entry ACACAUGAGGAUCACCCAUGUAGCUGGCGUCUGCGCCAGCCACAGGAUAUACGGUAACACAAACCGUAGAAGGGUGAUAAACAC [Inerre] (puzzle (switch architecture): Same State NG 3) shows apparent KD of MS2 coat protein of no less than 50 nM?
fulfilled

Could you verify whether the entry GGAAUAAAUGCAGGAUAUACGUGGAAAGCCCUCAACAUGAGGAUCACCCAUGUAGAAGGGCAUCUCCCGACCGAAGCGGAUCUC [Laisraus] (puzzle (switch architecture): Small Loop Exclusion NG 1) shows apparent KD of MS2 coat protein of no less than 50 nM?
not fulfilled

Could you verify whether the entry GCAGCUAAUGCAGGAUAUCAGCACGUGUAGUGCUGAGAAGGGCACAUGAGGAUACCCACUGUGAUCAAUUAAUAUUAAUGCUGC [salish99#hingeEx3_55-58_002] (puzzle (switch architecture): Exclusion NG 1) shows apparent KD of MS2 coat protein of no less than 50 nM?
not fulfilled

Could you verify whether the entry GGAGAUACAUGAGGAUCACCCAUGUAGGAUAUCGGGCCCAUAUCCGGCGAAAGCCGGAUAUGGGCCGAGAAGGGCGUACACACC [#LOL-6] (puzzle (switch architecture): Small Loop Exclusion NG 3) shows apparent KD of MS2 coat protein of no less than 50 nM?
not fulfilled

Could you verify whether the entry AGGUAUACUUAGAAGGGCUCCAGCAAAGCUGGAGCAGGAUAUGAGGAUCACCCAUAUCACCUGACGGUCGAAACGACCGUCAGG [#SharedSequence - IExNG1: 8-1] (puzzle (switch architecture): Inverted Exclusion NG 1) shows apparent KD of MS2 coat protein of no less than 50 nM?
not fulfilled

Could you verify whether the entry UAUUCUUUGUUAGGAUAUGGGCCCACCCACCCACAAAGUGGGUGGGUGGGCCCAGAAGGAACAUGAGGAUCACCCAUGUAGGAA [#Aaaddddeeeeeeennnniiiinneeeee!] (puzzle (switch architecture): Small Loop Exclusion NG 1) shows apparent KD of MS2 coat protein of no less than 50 nM?
fulfilled

Could you verify whether the entry AGGAGGAAUGUAGGAUAUAUAUAUAUAUAUAGACAAAGUGUAUAUAUAUAUAUAGAAGGACAUGAGGAUCACCCAUGUUUCCCU [#Lowering the energy 13] (puzzle (switch architecture): Small Loop Exclusion NG 1) shows apparent KD of MS2 coat protein of no less than 50 nM?
not fulfilled

Could you verify whether the entry GACUGCAGGAUAACAACCUGCAGUCACUUCUGAGGAUCACCCAGAAGGGCUGAGGUAAUACCUCAGCAGGAUAUGGAGUGAAAA [#SharedSequence IExNG# - 5] (puzzle (switch architecture): Inverted Exclusion NG 3) shows apparent KD of MS2 coat protein of no less than 50 nM?
fulfilled

Could you verify whether the entry GGUACUCAAAGAGUACCAAUACGAACAUGAGGAUCACCCAUGUAGGAUAUGCUACUCAAAGAGUAGCAGAAGGACAUGUGUCUA [jl-ex3-3.01 #GC_VS_GU_SWITCHING] (puzzle (switch architecture): Exclusion NG 3) shows apparent KD of MS2 coat protein of no less than 50 nM?
fulfilled

====

Tested on: MS2 coat protein
method: apparent KD of MS2 coat protein; higher = weaker reporter binding
assayContext: Eterna round: R107; input ligand: theophylline 2 mM
Response key: fulfilled means apparent KD of MS2 coat protein >= 0.2 µM; not fulfilled means apparent KD of MS2 coat protein < 0.2 µM.

monomerSequence	testedTarget	discreteLabel
AAAAUCCUACUUGAGGAUCACCCAGGUGAAGGAGCGCCCGAAAGGGCAGGUAGGUCGCACCUGAGGAUCACCCUGGUAAACCUAA [ArgEX 8 #DoubleMS2 #OpenEnded]	MS2 coat protein	not fulfilled
UAUACAUGGUAUAAAUAUAUAUAUAAGAAACGAGGACCGGUACGGCCGCCACUCGUGCCGGAAACAUGAGGAUCACCCAUGUAUU [AK1 Exclusion TrypA mod IceBolt]	MS2 coat protein	not fulfilled
UGACAUUGCUCAGAUACCAGACGUGAGGAUCACCCACGUGCCAACAAGUACAUAAUAAAUGUCCCUUGGCAGCUGAGCAAUGUCU [TheoBX 17 #MS2Left #Theo2 #AlternativeMS2]	MS2 coat protein	not fulfilled
GCGUUCUCUGCGGCCGCCACUCAAGGAGCUACAUAGCUCCUAGACAUGAGGAUCACCCAUGUGGCGAGGACCGGGUAGAUCCUUA [Same State Typptophan B GF7]	MS2 coat protein	fulfilled
UAAACUACACAUGAGGAUCACCCAUGUGGCCGAGGACCGGUACGGCCGCCACUCGUGUGUUAAUAAAAGAACCGCAAAGUUCUGU [Ticerear]	MS2 coat protein	fulfilled

Could you verify whether the entry GGUGUUACGUCGGCCGCCACUAUACUACAUGAGGAUCACCCAUGUCAUCCCUUCAAUUGGUAGCCUAGGACCGGGACAGAAUUCG [theeternabot_exclusion_MS2_Trp_B_8] shows apparent KD of MS2 coat protein of no less than 0.2 µM?
not fulfilled

Could you verify whether the entry CGCAAGCAACAUGAGGAUCACCCAUGUGAAGGAGCGCCGAAUAAGGCAGGUAGGUCGCACAUGAAUAAAUCAUGUAAAAGCUUGC [MAT - Exclusion Arginine A - Mod of Eli - D22] shows apparent KD of MS2 coat protein of no less than 0.2 µM?
not fulfilled

Could you verify whether the entry UAAUAAGUACCGGUCCUCAGAUCCUCAUGACGAGGACCGGUACGGCCGCCACUCGAAACAUGAGGAUCACCCAUGUAAUAAUAAU [|T'-M'-Trp-Ms2|_Design 1] shows apparent KD of MS2 coat protein of no less than 0.2 µM?
not fulfilled

====

System: MS2 coat protein
method: apparent KD of MS2 coat protein; designed switch direction (-1 OFF switch, 1 ON switch): -1; higher = weaker reporter binding
assayContext: Eterna round: R95; input ligand: none
// reported apparent KD of MS2 coat protein per item
Number in nM, nothing else.

Some solved cases for reference:
| monomerSequence | obsValue |
| --- | --- |
| AGAAAUGCCCAUGACCGCAAGCUUUUUGCUUGUCUUACCACAUGAGGAUCACCCAUGUGACAUGGGCUCCUGAUAAU [Onlaleti] (puzzle: Sensor v3, turn-off variant 2) | 12.3 |
| CUGGUCCGAGGAUAUAUUUAGUGAAACAUGAGGAUCACCCAUGUUAUUAGAUGGAUGUAAAUAGAAGGCGGACUAG [Mat - Exclusion 5 - JL mod - D63] (puzzle: Exclusion 5) | 23.8 |
| AGAUGUAGAUACCGAUCCUACAUGAGGAUCACCCAUGUAGCUAGACGUGCGCGCGUCGCUCGUCAGACUACCAGUAG [salish99_TOv1_r3_092] (puzzle: Sensor v3, turn-off variant 1) | 157 |
| AAAAGGUGAGGAUAUACAAUGAUCCUCAUAAUAACCCGAAGACAUGAGGAUCACCCAUGUAGAAGGCACAAAUA [Istive] (puzzle: Exclusion 2) | 19.8 |
| AAGUACCGUCACGAUAGUGAUGGUACAACUAGCAUGUAAACAUGAGGAUCACCCAUGUCCUCAAUUGCUCGUCUUAU [Sensor 3 - 69] (puzzle: Sensor v3, turn-off variant 2) | 814 |
| AGUAGGUCUACCUUGGUGGAUCUGCAUUUAUGCAAGUGUACAUGAGGAUCACCCAUGUCCUCAUUUGCUCGUCUUAU [JL turnoff v2 99.26] (puzzle: Sensor v3, turn-off variant 2) | 103 |
| AAGAAACAUGAGGAUCACCCAUGUGAGGAUAUGAGGAAGAAAAGAAAAGAAAGAAGAUUCAGAAGGCACAAAGG [salish99-ex1_r3_058] (puzzle: Exclusion 1) | 59.1 |

Report apparent KD of MS2 coat protein, nothing else, for this sequence: ACCCAACAUGAGGAUCACCCAUGUCAGGAUAUCCAAGCGAAAGCAAAAGCGAAAGCAAGGAGAAGGGACAAUGG [ChP 04-04-2015 #7] (puzzle: Exclusion 1)
276
